Tested on: JIMT-1 cells
EXPERIMENTAL DETAILS: MTS viability assay, JIMT-1 breast cancer cells
Format: cell-based, human
CONDITION DESCRIPTION: Table 5, 48 h, read-out: CC50 JIMT1
Procedure: FIG. 2B. Effects of compounds 1-11 on the viability of JIMT-1 cells. JIMT-1 cells were cultured in DMEM medium supplemented with 10% FBS. Equal numbers were dispersed into 96-well plates. […] The OD490 was read with a plate reader. […] FIG. 2J. […] The OD490 was read with a plate reader. […] The effects of the GAELs on the viability of the various epithelial cancer cell lines was determined as previously described. […] The OD490 was read with a plate reader. […]
OBSERVED PROPERTY: CC50

Illustrative cases are given below, each with its answer.
- CCCCCCCCCCCCCCCCOC[C@H](CO[C@H]1O[C@@H](CN)[C@H](OCc2ccccc2)[C@@H](O)[C@@H]1N)OC [Compound 70]: 2000 nM
- CCCCCCCCCCCCCCCCOC[C@H](CO[C@@H]1O[C@@H](CN)[C@H](O)[C@@H](O)[C@@H]1N)OC [Compound 71]: 4000 nM

Next:
# compound CCCCCCCCCCCCCCCCOC[C@H](CO[C@@H]1O[C@@H](CN)[C@H](OCc2ccccc2)[C@@H](O)[C@@H]1N)OC [Compound 72] ; its CC50 = 2000 nM

###

Tested on: MDA-MB-231 cells
EXPERIMENTAL DETAILS: MTS viability assay, MDA-MB-231 breast cancer cells
Assay type: cell-based, human
CONDITION DESCRIPTION: Table 1B, 48 h, read-out: CC90 values MD 231
OBSERVED PROPERTY: CC90 (µM)
Give a bare numeral; the unit µM is implied.

Solved entries (count: 4):
- CCCCCCCCCCCCCCCCOC[C@@H](CN)O[C@H]1O[C@H](CO)[C@@H](O)[C@H](O)[C@H]1N: 17.5
- CCCCCCCCCCCCCCCCOC[C@@H](CN=[N+]=[N-])O[C@@H]1O[C@H](CO)[C@@H](O)[C@H](O)[C@H]1N: 15
- CCCCCCCCCCCCCCCCOCC(N)CO[C@H]1O[C@H](CO)[C@@H](O)[C@H](O)[C@H]1N (some centres unmarked): 9
- CCCCCCCCCCCCCCCCOCCCO[C@@H]1O[C@H](CN)[C@@H](O)[C@H](O)[C@H]1N: 7

Alright, here's another compound for you.
Recorded CC90 (compound `CCCCCCCCCCCCCCCCOC[C@H](CO[C@@H]1O[C@H](CN)[C@@H](O)[C@H](O)[C@H]1N)OC` ): 7

###

Tested on: BT-474 cells
EXPERIMENTAL DETAILS: MTS viability assay, BT-474 breast cancer cells
Assay type: cell-based, human
CONDITION DESCRIPTION: Table 1A; 48 h, MTS; read-out: CC50 values BT474
OBSERVED PROPERTY: CC50

* CCCCCCCCCCCCCCCCOCC(CO[C@@H]1O[C@H](CN)[C@@H](O)[C@H](O)[C@H]1N)O[C@@H]1O[C@H](CN)[C@@H](O)[C@H](O)[C@H]1N (stereo partly drawn) | > 30 µM

Entry `CCCCCCCCCCCCCCCCOCCCO[C@@H]1O[C@H](CN)[C@@H](O)[C@H](O)[C@H]1N` : CC50 on BT-474 cells = 8.5 µM

Form field, CC50 with BT-474 cells, item CCCCCCCCCCCCCCCCOCC(N)CO[C@H]1O[C@H](CO)[C@@H](O)[C@H](O)[C@H]1N (stereo partly drawn) : 15.5 µM

Form field CC50 for item `CCCCCCCCCCCCCCCCOC[C@@H](CN)O[C@H]1O[C@H](CO)[C@@H](O)[C@H](O)[C@H]1N` on BT-474 cells: 25 µM

Tested on BT-474 cells: `CCCCCCCCCCCCCCCCOC[C@@H](CN=[N+]=[N-])O[C@@H]1O[C@H](CO)[C@@H](O)[C@H](O)[C@H]1N` . Observed CC50: 22 µM

Field CC50 (BT-474 cells), entry CCCCCCCCCCCCCCCCOCC(CO[C@@H]1O[C@H](CO)[C@@H](O)[C@H](O)[C@H]1N)NC(=O)CCCCCCCCCCCCCCC (stereo partly drawn) : > 30 µM

###

Test system: DU145 cells
EXPERIMENTAL DETAILS: MTS viability assay, DU145 prostate cancer cells
Type: cell-based, human
CONDITION DESCRIPTION: Table 5, 48 h, read-out: CC90 DU-145
# reported CC90; entries follow
Form entry: value (µM) — number only.

Answered cases to consult:
- CCCCCCCCCCCCCCCCOC[C@H](CO[C@@H]1O[C@@H](CN)[C@H](OCc2ccccc2)[C@@H](O)[C@@H]1N)OC [Compound 72]: 4.9
- CCCCCCCCCCCCCCCCOC[C@H](CO[C@H]1O[C@@H](CN)[C@H](OCc2ccccc2)[C@@H](O)[C@@H]1N)OC [Compound 70]: 4.9

Proceed to the following item.
In plain terms, CCCCCCCCCCCCCCCCOC[C@H](CO[C@@H]1O[C@@H](CN)[C@H](O)[C@@H](O)[C@@H]1N)OC [Compound 71] has a documented CC90 of 8

###

Entries and their CC90
System: JIMT-1 cells
EXPERIMENTAL DETAILS: MTS viability assay, JIMT-1 breast cancer cells
Type: cell-based, human
CONDITION DESCRIPTION: Table 5, 48 h, read-out: CC90 JIMT1
Number only, in µM; omit the unit.

The examples below pair each entry with its known result.
- CCCCCCCCCCCCCCCCOC[C@H](CO[C@@H]1O[C@@H](CN)[C@H](OCc2ccccc2)[C@@H](O)[C@@H]1N)OC [Compound 72]: 3.5
- CCCCCCCCCCCCCCCCOC[C@H](CO[C@H]1O[C@@H](CN)[C@H](OCc2ccccc2)[C@@H](O)[C@@H]1N)OC [Compound 70]: 3.5

Turning to the following molecule.
Data point: CCCCCCCCCCCCCCCCOC[C@H](CO[C@@H]1O[C@@H](CN)[C@H](O)[C@@H](O)[C@@H]1N)OC [Compound 71] ; CC90 = 6.5

###

Tested on: DU145 cells
EXPERIMENTAL DETAILS: MTS viability assay, DU145 prostate cancer cells
Assay type: cell-based, human
CONDITION DESCRIPTION: Table 6, 48 h, read-out: DU145 CC90
Entries and their CC90
Respond with the bare value in µM.

Given the compound CCCCCCCCCCCCCCCCOC[C@H](COC1O[C@H](CNCCCN)[C@@H](O)[C@H](O)[C@H]1N)OC (stereo partly shown) [Compound 74] and test system DU145 cells, the measured CC90 is 20

DU145 cells data for CCCCCCCCCCCCCCCCOC[C@H](COC1O[C@H](CNCCCCCCCCCCCCN)[C@@H](O)[C@H](O)[C@H]1N)OC (stereo partly shown) [Compound 73] ; its CC90: 4.8

Recorded CC90 for CCCCCCCCCCCCCCCCOC[C@H](COC1O[C@H](CN)[C@@H](O)[C@H](O)[C@H]1NCCCCCCCCCCCCN)OC (stereo partly shown) [Compound 75] on DU145 cells was 9.5

###

System: MiaPaCa2 cells
EXPERIMENTAL DETAILS: MTS viability assay, MiaPaCa2 pancreas cancer cells
Type: cell-based, human
CONDITION DESCRIPTION: Table 6, 48 h, read-out: MiaPaCa2 CC50
OBSERVED PROPERTY: CC50 (µM)
Form entry: value (µM) — number only.

• CCCCCCCCCCCCCCCCOC[C@H](COC1O[C@H](CN)[C@@H](O)[C@H](O)[C@H]1NCCCN)OC (stereo partly shown) = 14.5
• CCCCCCCCCCCCCCCCOC[C@H](COC1O[C@H](CNCCCN)[C@@H](O)[C@H](O)[C@H]1N)OC (stereo partly shown) = 18.5
• CCCCCCCCCCCCCCCCOC[C@H](COC1O[C@H](CNCCCCCCCCCCCCN)[C@@H](O)[C@H](O)[C@H]1N)OC (stereo partly shown) = 4

Let us examine a further case.
Record CCCCCCCCCCCCCCCCOC[C@H](COC1O[C@H](CN)[C@@H](O)[C@H](O)[C@H]1NCCCCCCCCCCCCN)OC (stereo partly shown) , field CC50: 8.5

###

Entries and their CC90
Tested on: JIMT-1 cells
EXPERIMENTAL DETAILS: MTS viability assay, JIMT-1 breast cancer cells
Type: cell-based, human
CONDITION DESCRIPTION: Table 6, 48 h, read-out: JIMT1 CC90
Return type: number; implicit unit µM.

Lab note: CCCCCCCCCCCCCCCCOC[C@H](COC1O[C@H](CNCCCN)[C@@H](O)[C@H](O)[C@H]1N)OC (stereo partly shown) [Compound 74] gave CC90 of 18.5

Given item CCCCCCCCCCCCCCCCOC[C@H](COC1O[C@H](CNCCCCCCCCCCCCN)[C@@H](O)[C@H](O)[C@H]1N)OC (stereo partly shown) [Compound 73] , the value recorded as its CC90 is 4.6

CC90 measured on CCCCCCCCCCCCCCCCOC[C@H](COC1O[C@H](CN)[C@@H](O)[C@H](O)[C@H]1NCCCCCCCCCCCCN)OC (stereo partly shown) [Compound 75] = 9.5

Measured CC90, CCCCCCCCCCCCCCCCOC[C@H](COC1O[C@H](CN)[C@@H](O)[C@H](O)[C@H]1NCCCN)OC (stereo partly shown) [Compound 76] : 16.5
